System: mouse neurosphere-derived oligodendrocyte precursor cells (Nph-OPCs)
Experiment: Morphology-based OPC differentiation assay (branches, outgrowth; high-content imaging)
Type: cell-based
Conditions: Mus musculus, Oligodendrocyte precursor cell, 72 h, read-out: IC50, generation of branches in OPC differentiation assay
Description: Neurospheres (Nph) were prepared from embryos at 14.5 days of gestation obtained from timed pregnant females of C57/Bl6 mice, as previously described ([Kornblum, Yanni, Easterday, & Seroogy, 2000]; [Pedraza, Monk, Lei, Hao, & Macklin, 2008]). […]
MEASURE: IC50 (µM)
One number for each entry, in µM.

compound C[C@@H](N)[C@H]1CC[C@H](C(=O)Nc2ccncc2)CC1.Cl.Cl , IC50 observed: 2.7
